Known pIC50 of a selection of molecules
- target.entity: Carnitine O-palmitoyltransferase 1, liver isoform (Homo sapiens, UniProt P50416)
- Sequence (P50416 whole entry): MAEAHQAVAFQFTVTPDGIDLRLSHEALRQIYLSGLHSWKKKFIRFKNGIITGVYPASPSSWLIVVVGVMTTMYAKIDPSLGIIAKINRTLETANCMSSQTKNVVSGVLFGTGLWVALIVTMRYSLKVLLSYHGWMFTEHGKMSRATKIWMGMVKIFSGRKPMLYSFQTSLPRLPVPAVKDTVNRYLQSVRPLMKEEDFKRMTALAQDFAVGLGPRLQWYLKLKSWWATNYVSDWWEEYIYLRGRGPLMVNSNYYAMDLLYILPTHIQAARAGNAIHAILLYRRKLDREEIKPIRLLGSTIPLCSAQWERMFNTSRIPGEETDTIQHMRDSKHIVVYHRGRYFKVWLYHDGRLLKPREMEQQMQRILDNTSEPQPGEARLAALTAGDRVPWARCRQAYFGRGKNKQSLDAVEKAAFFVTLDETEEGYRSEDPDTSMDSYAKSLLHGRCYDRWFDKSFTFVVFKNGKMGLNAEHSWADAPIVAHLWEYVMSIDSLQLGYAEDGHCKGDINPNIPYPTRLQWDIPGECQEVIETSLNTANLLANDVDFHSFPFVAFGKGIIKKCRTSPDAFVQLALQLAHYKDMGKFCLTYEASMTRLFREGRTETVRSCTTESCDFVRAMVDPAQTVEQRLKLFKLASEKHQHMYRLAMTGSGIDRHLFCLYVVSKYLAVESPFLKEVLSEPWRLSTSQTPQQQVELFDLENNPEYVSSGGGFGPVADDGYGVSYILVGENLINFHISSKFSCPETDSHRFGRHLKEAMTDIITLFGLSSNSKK
- test.description: SUPPLEMENTARY: Inhibition of Carnitine palmitoyltransferase 1, liver isoform
pIC50: −log10 of the molar value.
property: pIC50

- CN1CCN(c2cc3c(cc2Cl)CN(C(=O)[C@H]2CCCCN2C(=O)COc2ccccc2)C3)CC1: 7.06
- O=C(Nc1ccc(C(=O)O)c(F)c1)c1ccc2c(c1)N(S(=O)(=O)c1cc(Cl)cc(Cl)c1)CCC2: 6.96
- COc1ccc(Cl)cc1S(=O)(=O)N1CCOc2c(Cl)cc(C(=O)Nc3ncc(CC(=O)O)s3)cc21: 7.16
- CCN(c1cc(C(=O)Nc2ncc(CC(=O)O)s2)cc2c1OCO2)S(=O)(=O)c1cc(Cl)ccc1OC: 7.05
- COc1ccc(Cl)cc1S(=O)(=O)N1CCNc2ccc(C(=O)Nc3ccc(C(=O)O)c(F)c3)cc21: 6.95

====

- target.entity: Carnitine O-palmitoyltransferase 1, muscle isoform (Homo sapiens, UniProt Q92523)
- Sequence (Q92523 whole entry, canonical isoform): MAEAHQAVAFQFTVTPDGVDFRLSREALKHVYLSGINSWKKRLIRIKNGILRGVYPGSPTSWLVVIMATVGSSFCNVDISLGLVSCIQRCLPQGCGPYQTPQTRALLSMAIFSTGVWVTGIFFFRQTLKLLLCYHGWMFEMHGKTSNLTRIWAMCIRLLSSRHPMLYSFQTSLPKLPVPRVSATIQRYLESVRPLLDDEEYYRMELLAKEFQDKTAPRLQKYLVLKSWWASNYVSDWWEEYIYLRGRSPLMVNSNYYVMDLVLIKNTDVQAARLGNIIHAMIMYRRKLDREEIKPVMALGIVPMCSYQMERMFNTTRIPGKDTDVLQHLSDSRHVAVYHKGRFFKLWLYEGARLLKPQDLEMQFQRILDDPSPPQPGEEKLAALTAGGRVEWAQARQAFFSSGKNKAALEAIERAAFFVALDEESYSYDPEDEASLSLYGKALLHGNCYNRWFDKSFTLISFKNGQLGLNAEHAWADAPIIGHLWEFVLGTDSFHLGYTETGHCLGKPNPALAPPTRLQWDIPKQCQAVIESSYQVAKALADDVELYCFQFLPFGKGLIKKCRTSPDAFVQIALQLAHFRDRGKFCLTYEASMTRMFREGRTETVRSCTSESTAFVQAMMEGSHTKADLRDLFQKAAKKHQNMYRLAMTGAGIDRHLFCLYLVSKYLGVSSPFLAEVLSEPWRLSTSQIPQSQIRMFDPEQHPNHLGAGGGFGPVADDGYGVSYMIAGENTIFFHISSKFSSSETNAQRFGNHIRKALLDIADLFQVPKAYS
- test.description: SUPPLEMENTARY: Inhibition of Carnitine palmitoyltransferase 1, muscle isoform
pIC50: −log10 of the molar value.
property: pIC50

• COCCN(c1cc(C(=O)Nc2ccc(CC(=O)O)cc2)cc2c1OCO2)S(=O)(=O)c1cc(Cl)ccc1OC = 5.82
• O=C(O)c1cccc(-c2noc([C@H]3CCCCN3C(=O)COc3ccccc3)n2)c1 = 4.03

====

- test.description: SUPPLEMENTARY: Lyophilisation Solubility Assay (LYSA)
- Type: physicochemical
- condition.parameters: read-out: Kinetic_solubility
property: solubility kinetic (µg/mL)

• O=C(COc1ccccc1)N1CCCC[C@@H]1c1noc(-c2cccc(-n3cn[nH]c3=O)c2)n1 = 48
• O=C([C@H]1CCCCN1C(=O)COc1ccccc1)N1Cc2cc(Cl)c(N3CCOCC3)cc2C1 = 36

====

Known solubility kinetic of a selection of compounds
- test.description: SUPPLEMENTARY: Lyophilisation Solubility Assay (LYSA)
- Assay type: physicochemical
- condition.parameters: read-out: Kinetic_solubility
property: solubility kinetic

* CCOc1ccc(C(=O)Nc2ccc(C(=O)O)c(F)c2)cc1N(CCS(=O)O)S(=O)(=O)c1cc(Cl)ccc1OC | > 685 µg/mL
* COc1ccc(Cl)cc1S(=O)(=O)N(C)c1cc(C(=O)Nc2ccn(CC(=O)O)n2)cc2c1OCO2 | > 566 µg/mL
* COc1ccc(Cl)cc1S(=O)(=O)N1CCc2ccc(C(=O)Nc3ccc(C(=O)O)c(Cl)c3)cc21 | > 579 µg/mL
* CC1(C)NC(=O)N(c2ccc(Cl)c(-c3nc([C@H]4CCCCN4C(=O)COc4ccccc4)no3)c2)C1=O | < 1 µg/mL
* O=C(COc1ccccc1)N1CCCC[C@@H]1c1nc(-c2cccc(N3CCCS3(=O)=O)c2)no1 | < 1 µg/mL

====

Known pIC50 of a selection of molecules
- target.entity: Carnitine O-palmitoyltransferase 1, liver isoform (Rattus norvegicus)
- Sequence (P32198 whole entry): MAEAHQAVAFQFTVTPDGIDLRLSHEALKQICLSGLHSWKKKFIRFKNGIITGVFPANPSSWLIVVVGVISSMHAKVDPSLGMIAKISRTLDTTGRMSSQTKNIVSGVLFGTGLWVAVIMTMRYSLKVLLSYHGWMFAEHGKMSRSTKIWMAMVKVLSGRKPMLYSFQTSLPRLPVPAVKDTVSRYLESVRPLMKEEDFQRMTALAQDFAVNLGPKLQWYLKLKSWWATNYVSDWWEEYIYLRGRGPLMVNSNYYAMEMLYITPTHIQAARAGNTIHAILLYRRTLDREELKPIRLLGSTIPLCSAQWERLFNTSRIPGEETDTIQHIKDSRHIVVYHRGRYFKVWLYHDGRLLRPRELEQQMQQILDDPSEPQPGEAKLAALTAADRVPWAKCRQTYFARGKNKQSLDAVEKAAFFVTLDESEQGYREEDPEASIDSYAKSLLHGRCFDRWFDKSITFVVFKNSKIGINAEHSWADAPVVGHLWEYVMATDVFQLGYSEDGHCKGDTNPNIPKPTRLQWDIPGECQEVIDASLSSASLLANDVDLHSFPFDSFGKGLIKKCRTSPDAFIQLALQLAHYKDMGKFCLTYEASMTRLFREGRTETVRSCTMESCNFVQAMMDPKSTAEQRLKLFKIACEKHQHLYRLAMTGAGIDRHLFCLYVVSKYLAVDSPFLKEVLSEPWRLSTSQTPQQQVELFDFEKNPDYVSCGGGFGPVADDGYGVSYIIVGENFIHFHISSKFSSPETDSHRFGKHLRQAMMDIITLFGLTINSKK
- test.description: SUPPLEMENTARY: Inhibition of Carnitine palmitoyltransferase 1, liver isoform
pIC50: −log10 of the molar value.
property: pIC50

* COc1ccc(Cl)cc1S(=O)(=O)N1CCc2ccc(C(=O)Nc3ccc(C(=O)O)c(F)c3)cc21 | 7.18
* O=C([C@H]1CCCCN1C(=O)COc1ccccc1)N1Cc2cc(F)c(OC3CCOCC3)cc2C1 | 7.11
* O=C(COc1ccccc1)N1CCCC[C@@H]1c1csc(-c2n[nH]c3ccccc23)n1 | 6.89
* CCCN(c1cc(C(=O)Nc2ncc(CC(=O)O)s2)cc2c1OCO2)S(=O)(=O)c1cc(Cl)ccc1OC | 7.21
* O=C(COc1ccccc1)N1CCCC[C@@H]1C#Cc1ccc2[nH]cnc2c1 | 7.14
* O=C1CN(c2cccc(-c3nc([C@H]4CCCCN4C(=O)COc4ccccc4)no3)c2)C(=O)N1 | 6.99
* O=C([C@H]1CCCCN1C(=O)COc1ccccc1)N1Cc2ccc(C3CCOCC3)cc2C1 | 7.19
* O=C(COc1ccccc1)N1CCCC[C@@H]1c1csc(-c2ccccn2)n1 | 6.97

====

- target.entity: Carnitine O-palmitoyltransferase 1, liver isoform (Rattus norvegicus)
- test.description: SUPPLEMENTARY: Inhibition of Carnitine palmitoyltransferase 1, liver isoform
pIC50: −log10 of the molar value.
Known pIC50 of a selection of compounds
property: pIC50

* O=C(O)c1ccc(NC(=O)c2ccc(NS(=O)(=O)c3cc(Cl)cc(Cl)c3)s2)cc1 | 6.58
* COc1ccc(Cl)cc1S(=O)(=O)c1c[nH]c2ccc(C(=O)Nc3ccc(C(=O)O)cc3)cc12 | 7.69
* CC(=O)Nc1cccc(-c2n[nH]c([C@H]3CCCCN3C(=O)COc3ccccc3)n2)c1 | 6.47
* COc1ccc(Cl)cc1S(=O)(=O)N1CCOc2ccc(C(=O)Nc3ccc(-c4noc(=O)[nH]4)cc3)cc21 | 6.82
* COc1ccc(Cl)cc1S(=O)(=O)N(C)c1cc(C(=O)Nc2ccc(C(=O)O)cc2)cc2c1OCO2 | 6.92

====

- test.description: SUPPLEMENTARY: PAMPA permeability assay
- Type: physicochemical
- condition.parameters: read-out: Permeability
property: Papp (×10⁻⁶ cm/s)

• O=C(COc1ccccc1)N1CCCC[C@@H]1c1noc(-c2cccc(N3CCCS3(=O)=O)c2)n1 = 1
• O=C(COc1ccccc1)N1CCCC[C@@H]1c1noc(C2CCCCC2)n1 = 0.965
• CS(=O)(=O)c1cccc(-c2nc([C@H]3CCCCN3C(=O)COc3ccccc3)no2)c1 = 2.96
• O=C(NC1CC1)c1cncc(-c2noc([C@H]3CCCCN3C(=O)COc3ccccc3)n2)c1 = 3.2
